Sourced from PubChem BioAssay (NCI)

# Test system: SNB-19 CNS
# Assay: NCI-60 one-dose screen, 48 h (100 = growth as untreated, 0 = no growth, -100 = all killed)
# Experimental setup: 10 µM
The panel holds about 83,000 compounds, 20% with a hit somewhere; the sample as a whole holds those more often.
Rule: growth of 70% or more gives criterion met; anything lower gives criterion not met.

These recorded examples may help you get a feel for the data.
Compound | Class name
COc1ccc(NC(=O)CSc2nc3ccccc3c(=O)n2CCc2ccccc2)cc1 | criterion not met
COc1cc(NC(=O)CCSc2nc3ccc(C)cc3c(=O)n2Cc2ccccc2)cc(OC)c1OC | criterion met

Does the reported growth for CCOC(=O)CNC(=O)CCCCSc1ncnc2nc[nH]c12 fall at or above the 70% mark?
criterion met

growth >= 70% for CC1(C)OC2=C(CC1Br)C(=O)C(=O)c1ccccc12 (centres undefined) ?
criterion not met

Hello, I need to know if O=C1/C(=C\c2ccccc2)CN(C(=O)c2ccccc2F)C/C1=C\c1ccccc1 has measured growth not below 70%. Thanks!
criterion not met

* * *

# System: MDA-MB-231 breast
# Assay: NCI-60 one-dose screen, 48 h (100 = growth as untreated, 0 = no growth, -100 = all killed)
# Experimental setup: 10 µM
About 83,000 compounds went through this panel and 20% of them were active in at least one assay; those are over-represented in the sample as a whole.
# label = met if growth < 90% else not met

// below: answered compounds
Compound | System | Class name
Cc1cc(=O)n2nnc3c4ccccc4ccc3n12 | MDA-MB-231 breast | met
CC(=O)/C(=C/c1ccccc1)C(=O)CC(C)C | MDA-MB-231 breast | not met
COc1ccc(-c2nn(-c3cccc(NC(=O)c4cc(C(F)(F)F)cc(C(F)(F)F)c4)c3)cc2-c2ccncc2)cc1Cl | MDA-MB-231 breast | met
COc1ccc(-c2nn(-c3cccc(NC(=O)c4ccc5c(c4)OCCO5)c3)cc2-c2ccncc2)cc1Cl | MDA-MB-231 breast | met
O=C1/C(=C\c2ccccc2)CN(C(=O)c2ccccc2F)C/C1=C\c1ccccc1 | MDA-MB-231 breast | met

Please state whether growth is below 90% for O=C(Nc1ccc(Cl)cc1)N1NC(c2ccc(Cl)cc2)C=C1c1ccccc1 (stereo not given)
not met

Hello, is growth of the following compound strictly smaller than 90%? C=C(C(=O)c1ccccc1)C(NC(C)(C)C)c1ccccc1 (stereo not given)
met

* * *

# Test system: SF-268 CNS
# Assay: NCI-60 one-dose screen, 48 h (100 = growth as untreated, 0 = no growth, -100 = all killed)
# Experimental setup: 10 µM
About 83,000 compounds went through this panel and 20% of them were active in at least one assay; those are over-represented in the sample as a whole. Calls of active or inactive are those of the source. Rule for the calls: active = growth percent below 10; inactive = the rest.
Listed here: items and their measured growth.

Compound | growth
COc1cc(Cl)cc(-c2nn(-c3cccc(NC(=O)Nc4ccc(Cl)c(C(F)(F)F)c4)c3)cc2-c2ccncc2)c1 | 22.9% (inactive)
CCC(=O)N1C/C(=C/c2ccc(Cl)cc2)C(=O)/C(=C/c2ccc(Cl)cc2)C1 | -30.4% (active)

Quick check: growth of CCN(CCCCCCCCCCN1CC(=O)N(CCCCCCCCCCN(CC)Cc2ccccc2OC)CC1=O)Cc1ccccc1OC ?
4.39% (active)

Consider the compound shown here: COc1cc(-c2cc(C(=O)N3CCN(C(=O)c4ccccc4NCc4cccs4)CC3)nc3cc(-c4ccccc4)nn23)cc(OC)c1OC What is its recorded growth?
90.8% (inactive)

Reported growth for CCOC(=O)CCC(NC(=O)c1ccc(N)cc1)C(=O)OCC (stereo unspecified) : what is it?
99.7% (inactive)

Please give the measured growth for this compound: N#CCCN1C/C(=C/c2ccc(Br)cc2)C(=O)/C(=C/c2ccc(Br)cc2)C1
-36.2% (active)

* * *

# Test system: A498 renal
# Assay: NCI-60 one-dose screen, 48 h
# Experimental setup: 10 µM
The panel holds about 83,000 compounds, 20% with a hit somewhere; the sample as a whole holds those more often. Calls of active or inactive are those of the source. Rule for the calls: active = growth percent below 10; inactive = the rest.
Your response should consist of one outcome taken from active, inactive

Compound | System | Class name
O=C1OCC2=C1C(c1cccc(Cl)c1)c1cc3c(cc1N2CCO)OCCO3 (stereo not drawn) | A498 renal | active
C/C(N)=C(\C#N)C(=O)c1ccccc1 | A498 renal | inactive

Next, consider the following compound.
// return assay outcome for c1ccc([I+]c2ccccc2)cc1
inactive

* * *

# System: RPMI-8226 leukemia
# Assay: NCI-60 one-dose screen, 48 h
# Experimental setup: 10 µM
Compounds without any hit were thinned out: in the full panel of roughly 83,000, 20% have a hit. Calls of active or inactive are those of the source. Rule for the calls: active = growth percent below 10; inactive = the rest.
Mark one answer only. Choices: active, inactive

Solved entries:
Item smiles | System | Class name
N=C1c2nc3n(c2C(=O)c2nc4n(c21)CCCC4)CCCC3 | RPMI-8226 leukemia | inactive
Nc1ncnc2[nH]c(=O)[nH]c12 | RPMI-8226 leukemia | inactive

Which outcome did this test record for the compound O=C1/C(=C\c2ccc(Br)cc2)CN(C(=O)c2ccccc2F)C/C1=C\c1ccc(Br)cc1 ?
active

* * *

growth listing for selected compounds.
# Tested on: A549/ATCC NSCLC
# Assay: NCI-60 one-dose screen, 48 h (100 = growth as untreated, 0 = no growth, -100 = all killed)
# Experimental setup: 10 µM
This is part of a sample that, as a whole, favours compounds with a hit. Of some 83,000 tested, about 20% had one in any assay.
// return numeric value only (unit: %, not printed)

Value wanted: growth (A549/ATCC NSCLC) of entry COc1cc(/C=N/NC(=O)c2ccccc2Nc2ccnc(C(F)(F)F)c2)ccc1O
66.9

Param readout= growth; system= A549/ATCC NSCLC; entry= NC(=O)SCC(=O)Nc1ccc(S(N)(=O)=O)cc1 ; returns value.
103

Find the measured growth: item Cc1cc(O)c(C(C)(C)C)cc1Sc1cc(C(C)(C)C)c(O)cc1C , target or system A549/ATCC NSCLC.
35.2

Query for A549/ATCC NSCLC: what growth does the record show for O=C(O)c1ccc(Cl)cc1Nc1ccc(F)cc1 ?
86.4

Record lookup: for A549/ATCC NSCLC, what growth belongs to CN(C)C(=S)N/N=C\C=N/NC(=S)N(C)C ?
40.1

Form: Entry = CCCN(CCC)CCC(O)c1cc2c(c3ccccc13)CCCC2 (stereo not given) | System = A549/ATCC NSCLC | growth = ____
92.3

Kindly state the measured growth obtained for COc1cc2nc(Nc3cccc(C(=O)O)c3)nc(N)c2cc1OC with A549/ATCC NSCLC.
104

Query for A549/ATCC NSCLC: what growth does the record show for Clc1nc(Cl)c2c(ncn2C/C=C\Cn2cnc3c(Cl)nc(Cl)nc32)n1 ?
-79.4

* * *

# Tested on: SF-268 CNS
# Assay: NCI-60 one-dose screen, 48 h (100 = growth as untreated, 0 = no growth, -100 = all killed)
# Experimental setup: 10 µM
# Method: Cells are grown in 96 well plates and exposed to the test compound for 48 hours. Compounds are tested at a single concentration, which is 10^-5 M for most compounds. The reported endpoint is percent growth (GI% or GIPRCNT), where numbers from 0 - 100% represent growth inhibition, and numbers from -100% - 0 represent cell death. For example, a value of 40 represents 60% growth inhibition. A value of 0 means no net growth occurred over the course of the experiment. […]
This is part of a sample that, as a whole, favours compounds with a hit. Of some 83,000 tested, about 20% had one in any assay.
Readout label: growth (%)
Numeric only. Scale: %

Compound | U | Value measured
CCn1cc(C(=O)O)c(=O)c2cnc(N3CCCC3)nc21 | % | 116
O=C1c2ccc3c4c(ccc(c24)C(=O)N1CCNCc1ccccc1)C(=O)N(CCNCc1ccccc1)C3=O | % | 7.12
COc1ccc2c(c1)C(=O)c1c-2c(OCCN(C)C)nc2ccccc12 | % | 26.6
COC(=O)C1(C)Cc2cc(OC(C)=O)c(OC(C)=O)cc2N1 (stereo not given) | % | 87.5
C/C(N)=C(\C#N)C(=O)c1ccccc1 | % | 110

// lookup growth for COc1ccc(/C(=C2\O[C@@H]([C@H]3COC(C)(C)O3)[C@H]3OC(C)(C)O[C@@H]23)c2cc(OC)c(OC)c(OC)c2)cc1O
36.3

* * *

growth overview
# Test system: MDA-MB-231 breast
# Assay: NCI-60 one-dose screen, 48 h (100 = growth as untreated, 0 = no growth, -100 = all killed)
# Experimental setup: 10 µM
This is part of a sample that, as a whole, favours compounds with a hit. Of some 83,000 tested, about 20% had one in any assay.
Entry rule: numbers only, all in %.

Compound | Value measured
CCCCC/C=C/C(=O)CCc1ccc(O)c(OC)c1 | 79.3
O=C1/C(=C\c2ccc(Cl)cc2)CN(C(=O)c2ccccc2)C/C1=C\c1ccc(Cl)cc1 | 25
Nc1nc(N=Nc2ccc(O)cc2)cc(=O)[nH]1 | 98.7

Report growth for S=C1SCC(c2ccccc2)S1 (centres undefined) please.
107

Would you kindly share the measured growth for COc1cc2cc3c(nc2cc1OC)CCN3Cc1ccc(NC(=O)Nc2ccc(F)cc2F)cc1 ?
89

Dear colleague, I am looking for the recorded growth of the following compound: COc1ccc(-c2nnc(-c3c(-c4ccccc4)nc4ncccn34)o2)cc1OC
91.3
